# ASSAYED SYSTEM: T1, EsCas13d, nuclease-dead (Eubacterium siraeum, UniProt B0MS50, R295A;H300A;R849A;H854A)
# T1 sequence: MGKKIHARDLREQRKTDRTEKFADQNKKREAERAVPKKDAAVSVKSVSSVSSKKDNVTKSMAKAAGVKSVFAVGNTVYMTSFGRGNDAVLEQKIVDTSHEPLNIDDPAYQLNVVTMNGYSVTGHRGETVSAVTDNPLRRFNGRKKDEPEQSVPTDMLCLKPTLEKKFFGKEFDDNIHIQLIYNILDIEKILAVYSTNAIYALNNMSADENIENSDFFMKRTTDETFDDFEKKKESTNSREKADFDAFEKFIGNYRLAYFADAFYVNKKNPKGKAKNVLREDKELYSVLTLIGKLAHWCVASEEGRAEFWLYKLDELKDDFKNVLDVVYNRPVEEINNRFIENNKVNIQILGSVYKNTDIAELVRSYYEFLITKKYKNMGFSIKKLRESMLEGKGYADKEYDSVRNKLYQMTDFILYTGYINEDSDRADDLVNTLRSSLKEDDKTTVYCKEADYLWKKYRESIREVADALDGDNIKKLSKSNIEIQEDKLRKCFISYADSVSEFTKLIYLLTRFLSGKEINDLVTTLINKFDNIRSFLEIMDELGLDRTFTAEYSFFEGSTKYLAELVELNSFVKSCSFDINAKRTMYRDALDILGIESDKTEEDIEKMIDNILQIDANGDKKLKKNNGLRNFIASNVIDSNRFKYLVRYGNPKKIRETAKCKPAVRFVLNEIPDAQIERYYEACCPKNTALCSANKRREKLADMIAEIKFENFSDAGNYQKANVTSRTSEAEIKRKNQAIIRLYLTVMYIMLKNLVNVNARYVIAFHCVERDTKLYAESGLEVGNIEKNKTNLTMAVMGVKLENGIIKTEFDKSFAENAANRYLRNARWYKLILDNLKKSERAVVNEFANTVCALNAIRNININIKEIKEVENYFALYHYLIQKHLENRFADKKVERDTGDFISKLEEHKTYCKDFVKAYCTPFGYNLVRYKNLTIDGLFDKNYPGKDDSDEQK
# MEASUREMENT PROTOCOL: crRNA (strand 1, pre-loaded); Mg2+; 40 mM Tris-HCl pH 7.5, 150 mM NaCl, 6 mM MgCl2, 1 mM DTT, 0.1% Tween-20, 0.2 mg/ml BSA; 25 C; 10 min per concentration, then washed
# CONDITION LABEL: tags: His6-TwinStrep-SUMO cleaved; N-terminal SNAP kept (SNAP-Surface 488); label: 3' end held by stalled T7 RNA polymerase
pKd: −log10 of the molar value.

BINDER	pKd
target 3 insG 3' of 8,insG 3' of 5 (mixed) RNA 1: CACCCGUGCAAAAUUGCAGGGGUCUAAAACGACCUGAAUAUUUCAGAUCAAA RNA 2: GGGAAUGGAUCCACAUCUACGAAUUCGUUUUUGAUCUGAAAUAUGUCAGGGUCUGCAGAUCGGAAGAGCACACGU	7.21
target 1 insC 3' of 20,insU 3' of 9 (mixed) RNA 1: CACCCGUGCAAAAAUGCAGGGGUCUAAAACUGAGCGGAUAACCUCUCUAUGG RNA 2: GGGAAUGGAUCCACAUCUACGAAUUCGUACCACUAGAGAGGUUAUUCCGCUCACCGAGAUCGGAAGAGCACACGU	8.10
target 1 MT 5'PFS CCU 3'PFS UCG (mixed) RNA 1: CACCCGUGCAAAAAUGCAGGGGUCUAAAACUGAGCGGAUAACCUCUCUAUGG RNA 2: GGGAAUGGAUCCACAUCUACGAAUUCCCUCCAUAGAGAGGUUAUCCGCUCAUCGAGAUCGGAAGAGCACACGU	7.85
target 3 insU 3' of 3,insU 3' of 1 (mixed) RNA 1: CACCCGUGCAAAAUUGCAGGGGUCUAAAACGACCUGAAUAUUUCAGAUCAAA RNA 2: GGGAAUGGAUCCACAUCUACGAAUUCGUUUUUGAUCUGAAAUAUUCAGGUUCUUGCAGAUCGGAAGAGCACACGU	7.02
